Taken from ChEMBL document CHEMBL1154294.

- Procedure details: Antiproliferative activity against rat 3Y1 cells after 3 days by tetrazolium based cell counting assay
As shown below, each of these molecules has a reported GI50 at 72 h value.

{"Molecule": "COC[C@@H](CC1O[C@@](O)([C@H](O)C2CC(=O)/C(C)=C/C(C)=C/C(C)=C/[C@@H](C)[C@H](O[C@@H]3O[C@@H](C)[C@H](OC)[C@@H](O)[C@@H]3O)/C=C/C(C)=C/CC[C@H](O)[C@@H](OC)C2)[C@H](C)[C@@H](OC(C)=O)[C@H]1C)O[C@H]1C[C@](C)(O)[C@@H](O[C@H]2C[C@@H](OC)[C@H](OC(C)=O)[C@@H](C)O2)[C@H](C)O1 (some centres not stated)", "GI50 at 72 h": "> 0.6 µM"}

Query: Field request: GI50 at 72 h | item: COC[C@@H](CC1O[C@@](O)([C@H](OC(C)=O)C2CC(=O)/C(C)=C/C(C)=C/C(C)=C/[C@@H](C)[C@H](O[C@@H]3O[C@@H](C)[C@H](OC)[C@@H](O)[C@@H]3O)/C=C/C(C)=C/CC[C@H](O)[C@@H](OC)C2)[C@H](C)[C@@H](O)[C@H]1C)O[C@H]1C[C@](C)(O)[C@@H](O[C@H]2C[C@@H](OC)[C@H](O)[C@@H](C)O2)[C@H](C)O1 (some centres not stated)
Reply: > 1 µM

* * *

- Procedure details: Antiproliferative activity against rat 3Y1 cells after 3 days by tetrazolium based cell counting assay
As shown below, each of these compounds has a reported GI50 at 72 h value.

{"Compound": "COC[C@@H](CC1O[C@@](O)([C@H](O)C2CC(=O)/C(C)=C/C(C)=C/C(C)=C/[C@@H](C)[C@H](O[C@@H]3O[C@@H](C)[C@H](OC)[C@@H](O)[C@@H]3O)/C=C/C(C)=C/CC[C@H](O)[C@@H](OC)C2)[C@H](C)[C@@H](O)[C@H]1C)O[C@H]1C[C@](C)(O)[C@@H](O[C@H]2C[C@@H](OC)[C@H](OC(C)=O)[C@@H](C)O2)[C@H](C)O1 (stereo partly drawn)", "Experimental value": "> 1000 nM"}

Query: Field request: GI50 at 72 h | item: COC[C@@H](CC1O[C@@](O)([C@@H]2OC(=O)/C(C)=C/C(C)=C/C(C)=C/[C@@H](C)[C@H](O[C@@H]3O[C@@H](C)[C@H](OC)[C@@H](O)[C@@H]3O)/C=C/C(C)=C/CC[C@H](O)[C@@H](OC)C[C@@H]2O)[C@H](C)[C@@H](O)[C@H]1C)O[C@H]1C[C@](C)(O)[C@@H](O[C@H]2C[C@@H](OC)[C@H](O)[C@@H](C)O2)[C@H](C)O1 (stereo partly drawn)
Reply: > 1000 nM

Query: Field request: GI50 at 72 h | item: COC[C@@H](CC1O[C@@](O)([C@H](O)C2CC(=O)/C(C)=C/C(C)=C/C(C)=C/[C@@H](C)[C@H](O[C@@H]3O[C@@H](C)[C@H](OC)[C@@H](OC(C)=O)[C@@H]3O)/C=C/C(C)=C/CC[C@H](O)[C@@H](OC)C2)[C@H](C)[C@@H](O)[C@H]1C)O[C@H]1C[C@](C)(O)[C@@H](O[C@H]2C[C@@H](OC)[C@H](O)[C@@H](C)O2)[C@H](C)O1 (stereo partly drawn)
Reply: > 1000 nM

* * *

- Assay system: ATP synthase subunit beta, mitochondrial (Saccharomyces cerevisiae S288c)
- Sequence (P00830 whole entry): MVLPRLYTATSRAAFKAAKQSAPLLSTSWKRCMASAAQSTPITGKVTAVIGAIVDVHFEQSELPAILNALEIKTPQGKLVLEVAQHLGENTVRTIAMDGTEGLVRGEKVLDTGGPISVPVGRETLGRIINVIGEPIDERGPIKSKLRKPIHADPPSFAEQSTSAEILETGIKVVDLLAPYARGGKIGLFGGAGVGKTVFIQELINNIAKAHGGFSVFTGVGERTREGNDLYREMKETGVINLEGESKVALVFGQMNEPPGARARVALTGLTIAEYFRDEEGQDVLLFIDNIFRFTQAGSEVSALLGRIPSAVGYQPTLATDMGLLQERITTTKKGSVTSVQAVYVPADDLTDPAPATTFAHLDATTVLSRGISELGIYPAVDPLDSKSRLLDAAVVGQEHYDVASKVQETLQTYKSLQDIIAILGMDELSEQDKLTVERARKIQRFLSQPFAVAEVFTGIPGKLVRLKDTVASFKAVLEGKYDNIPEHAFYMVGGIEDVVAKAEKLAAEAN
- Procedure details: Inhibition of yeast mitochondrial F0F1-ATPase
Property: pIC50
When answering, recall that pIC50 equals minus log10 of the concentration in mol/L, and write that number alone.

Query: I'm curious: which pIC50 was measured for COC[C@@H](CC1O[C@@](O)([C@H](OC)C2CC(=O)/C(C)=C/C(C)=C/C(C)=C/[C@@H](C)[C@H](O[C@@H]3O[C@@H](C)[C@H](OC)[C@@H](O)[C@@H]3O)/C=C/C(C)=C/CC[C@H](O)[C@@H](OC)C2)[C@H](C)[C@@H](O)[C@H]1C)O[C@H]1C[C@](C)(O)[C@@H](O[C@H]2C[C@@H](OC)[C@H](O)[C@@H](C)O2)[C@H](C)O1 (stereo partly specified) tested on ATP synthase subunit beta, mitochondrial (Saccharomyces cerevisiae S288c)?
Reply: 5.55
